Reference source: BindingDB's records for PubMed 6310078

- Study System: Sodium-dependent dopamine transporter (Rattus norvegicus, UniProt P23977)
- Sequence (P23977 whole entry): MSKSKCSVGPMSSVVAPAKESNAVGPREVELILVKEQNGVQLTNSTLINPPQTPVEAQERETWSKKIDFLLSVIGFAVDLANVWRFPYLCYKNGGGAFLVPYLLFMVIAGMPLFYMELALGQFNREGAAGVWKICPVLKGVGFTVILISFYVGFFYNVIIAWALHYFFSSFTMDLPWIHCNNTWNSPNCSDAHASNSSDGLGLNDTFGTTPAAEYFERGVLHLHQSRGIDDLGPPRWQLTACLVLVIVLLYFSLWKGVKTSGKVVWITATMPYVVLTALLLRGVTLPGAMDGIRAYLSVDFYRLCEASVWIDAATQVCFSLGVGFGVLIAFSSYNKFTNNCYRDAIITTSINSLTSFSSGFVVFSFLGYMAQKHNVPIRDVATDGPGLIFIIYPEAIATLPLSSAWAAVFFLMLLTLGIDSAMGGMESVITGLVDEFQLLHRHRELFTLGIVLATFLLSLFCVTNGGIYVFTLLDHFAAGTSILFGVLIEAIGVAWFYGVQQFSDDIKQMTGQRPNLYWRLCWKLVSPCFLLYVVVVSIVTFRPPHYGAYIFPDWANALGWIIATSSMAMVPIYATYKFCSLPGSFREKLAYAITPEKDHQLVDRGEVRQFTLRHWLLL
Structures can show the parent of a compound that is named as a salt.
Measurement Type: pKi
// returns pKi (minus log10 of molar concentration), number only

# value of pKi, Sodium-dependent dopamine transporter (Rattus norvegicus, UniProt P23977), item CN[C@@H]1CC[C@@H](c2ccccc2)c2ccccc21 = 6.82

# pKi measured on Sodium-dependent dopamine transporter (Rattus norvegicus, UniProt P23977) for item CN(C)CCCN1c2ccccc2CCc2ccc(Cl)cc21 [CLOMIPRAMINE HYDROCHLORIDE] = 5.09

---
Reported Sodium-dependent dopamine transporter (Rattus norvegicus, UniProt P23977) pKi for item N[C@H]1CC[C@@H](c2ccc(Cl)c(Cl)c2)c2ccccc21 was 5.42
